Catalogue of IC50 readings, one per entry.
- subjectOfTest: 11b-HSD1 (Mus musculus)
- Construct: Fibroblasts were differentiated into adipocytes; endogenous in cells
- Sequence (P50172 whole entry): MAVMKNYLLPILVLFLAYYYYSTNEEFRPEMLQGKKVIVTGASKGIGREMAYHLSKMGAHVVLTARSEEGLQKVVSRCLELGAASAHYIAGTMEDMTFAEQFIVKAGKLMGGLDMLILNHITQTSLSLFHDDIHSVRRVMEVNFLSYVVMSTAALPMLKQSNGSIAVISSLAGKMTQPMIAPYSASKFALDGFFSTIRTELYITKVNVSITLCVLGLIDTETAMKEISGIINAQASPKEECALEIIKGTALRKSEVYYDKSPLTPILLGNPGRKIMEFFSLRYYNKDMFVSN
- procedureText: Cellular assay, 11b-HSD1 activity in differentiated 3T3-L1 cells
- studyConditions: 4 hour pre-incubation, read-out: [C2] HSD1 cellular 3T3-L1 Score
attributeMeasured: IC50

1. COc1ccccc1CC[C@H]1CCN([C@@H](C)c2ccccc2)C1=O [Compound 124] : 1 to 10 µM
2. Cc1ccccc1C[C@@H]1CCN([C@@H](C)c2ccccc2)C1=O [Compound 1] : < 1 µM
3. Cc1ccccc1CC[C@H]1CCN([C@@H](C)c2ccccc2)C1=O [Compound 128] : 1 to 10 µM
4. Cc1ccc(C[C@@H]2CCN([C@@H](C)c3ccccc3)C2=O)cc1 [Compound 3] : 1 to 10 µM
5. Cc1cccc(CC2CCN(CCc3ccccc3)C2=O)c1 (stereo not drawn) [Compound 29] : 1 to 10 µM
6. O=C1[C@H](Cc2c(Cl)cccc2Cl)CCN1[C@H](CO)c1ccccc1 [Compound 105] : < 1 µM
7. COc1cccc(C[C@H]2CCN([C@@H](C)c3ccccc3)C2=O)c1 [Compound 19] : < 1 µM
8. O=C1C(Cc2cccc(O)c2)CCN1Cc1ccccc1 (stereo not drawn) [Compound 53] : 1 to 10 µM
9. C[C@@H](c1ccccc1)N1CC[C@@H](CCc2cccc3ccccc23)C1=O [Compound 74] : 1 to 10 µM
10. CC[C@@H](c1ccccc1)N1CC[C@@H](Cc2c(Cl)cccc2Cl)C1=O [Compound 95] : 1 to 10 µM
11. Cc1ccccc1CC1CCN(Cc2ccccc2)C1=O (stereo not drawn) [Compound 55] : 1 to 10 µM
12. C[C@@H](C[C@@H]1CCN([C@@H](C)c2ccccc2)C1=O)c1ccccc1 [Compound 134] : < 1 µM
13. C[C@@H](c1ccccc1)N1CCC(CCc2cccc3ccccc23)(CCc2cccc3ccccc23)C1=O [Compound 116] : > 10 µM
14. Cc1ccccc1C(C)[C@@H]1CCN([C@@H](C)c2ccccc2)C1=O (stereo partly drawn) [Compound 162] : < 1 µM
15. COc1cc(C[C@@H]2CCN([C@@H](C)c3ccccc3)C2=O)ccc1OCc1ccccc1 [Compound 121] : > 10 µM
16. COc1cc(CC2(Cc3ccc(OCc4ccccc4)c(OC)c3)CCN(CCc3ccccc3)C2=O)ccc1OCc1ccccc1 [Compound 164] : > 10 µM
17. C[C@@H](c1ccccc1)N1CC[C@@H](Cc2ccc(F)cc2Cl)C1=O [Compound 151] : < 1 µM
18. COc1ccc(CC[C@H]2CCN([C@@H](C)c3ccccc3)C2=O)cc1OC [Compound 126] : > 10 µM
